Origin of values: ChEMBL document CHEMBL5608113

Tested on: Colon cancer organoid
PROTOCOL TEXT: Targeting of F14 CAF-induced therapy resistance in O14 CRC organoid-stroma co-culture. Cell viability is reported with Gefitinib.
Format: functional, Homo sapiens
REPORTED CONDITIONS: Homo sapiens, Concentration 1 uM; read-out: Cell Viability
Reported viability at 1 µM by item:

[ask] Need viability at 1 µM of Cc1c(NC(=O)c2cc(C(N)=O)nc3cc(F)ccc23)c(C(F)(F)F)nn1Cc1ccc(C(C)(C)C)cc1 [BAY-588] , thanks.
[reply] 31.3%

[ask] # input molecule: CS(=O)(=O)c1cc(C2(NC(=O)c3cncc4c3cnn4-c3ccc(F)cc3)CC2)ccn1 [BI 639667] ; wanted: its viability at 1 µM
[reply] 39%

====

# key: entry, value: viability at 10 µM
Tested on: Colon cancer organoid
PROTOCOL TEXT: Targeting of F14 CAF-induced therapy resistance in O14 CRC organoid-stroma co-culture. Cell viability is reported without Gefitinib.
Assay type: functional, Homo sapiens
REPORTED CONDITIONS: Homo sapiens, Concentration 10 uM; read-out: Cell Viability

Example results:
INSERT INTO assay_data (smi, assay_target, measured_result) VALUES
  ('CCC(=O)N[C@@H]1CC[C@H](C(=O)N(C)c2ccc(-c3nc4ccccc4o3)cc2)C1', 'Colon cancer organoid', '150%'),
  ('CCOC(=O)c1c(/C(C#N)=C\N)c2ccc(Cl)c(Cl)c2n1C', 'Colon cancer organoid', '106%'),
  ('Cc1ccccc1Oc1cc(-n2c(=O)cc(C(F)(F)F)[nH]c2=O)c2ccccc2c1Cl', 'Colon cancer organoid', '167%'),
  ('CCN(Cc1ccc(Cl)cc1)c1ncc(C(=O)NCCCN2CCCC2=O)c(NC2CCCC2)n1', 'Colon cancer organoid', '108%');

[ask] Consider the molecule COc1ccc2c(c1)O[C@H](c1ccc(OC)c(OC)c1)C[C@@H]2NC(=O)C1(c2ccc3c(c2)OC(F)(F)O3)CC1 and give its measured viability at 10 µM.
[reply] 74.5%

====

Tested on: Colon cancer organoid
PROTOCOL TEXT: Targeting of F14 CAF-induced therapy resistance in O23 CRC organoid-stroma co-culture. Cell viability is reported with Gefitinib.
Format: functional, Homo sapiens
REPORTED CONDITIONS: Homo sapiens, Concentration 10 uM; read-out: Cell Viability
Consider the following partition of reported viability at 10 µM into named classes: low = under 50%, medium = from 50% up to 60%, high = 60% and over

Illustrative cases are given below, each with its answer.
INSERT INTO assay_data (compound, assay_target, answer_label) VALUES
  ('CCNC(=O)c1cc2c(N3CCOCC3C)ccnc2[nH]1 (stereo not given)', 'Colon cancer organoid', 'medium'),
  ('O=C(Nc1cccnn1)N1CCC(=Cc2cccc(Oc3ccc(C(F)(F)F)cn3)c2)CC1', 'Colon cancer organoid', 'medium'),
  ('CN1CCN(C(=O)C(C)(C)c2ccc(C(=O)Nc3cn4cc(-c5ccncc5)ccc4n3)cc2)CC1', 'Colon cancer organoid', 'low'),
  ('C[C@H](c1ccc(F)cc1)N(Cc1ccc(Cl)c(C(=O)O)c1)C(=O)c1cnc2ccccc2c1', 'Colon cancer organoid', 'low'),
  ('CC(=O)c1cc(-c2cc(C(=O)NC3CC3)ccc2C)c2ncccn12', 'Colon cancer organoid', 'high'),
  ('O=C(NCC(=O)N1CCCC1)Nc1ccc2cnccc2c1', 'Colon cancer organoid', 'high'),
  ('Cc1sc2c(c1C)C(c1ccc(Cl)cc1)=N[C@@H](CC(=O)NCCCCCCCCNC(=O)COc1cccc3c1C(=O)N(C1CCC(=O)NC1=O)C3=O)c1nnc(C)n1-2 (stereo not given in full)', 'Colon cancer organoid', 'low'),
  ('CC(=O)Nc1cccc(-n2c(=O)n(C3CC3)c(=O)c3c(Nc4ccc(I)cc4F)n(C)c(=O)c(C)c32)c1', 'Colon cancer organoid', 'low');

[ask] Bin? COc1cc(Nc2ccnc3ccc(Br)cc23)cc(OC)c1OC
[reply] low

[ask] Field: class (viability at 10 µM) — entry: CCCCNNC(=O)c1ccc(Br)cc1
[reply] medium

[ask] Input Cc1cn(-c2cc(NC(=O)c3ccc4c(c3)CN(c3cncnc3)C[C@@H]4C)cc(C(F)(F)F)c2)cn1 ; output its category
[reply] high

[ask] Please classify: c1ccc([C@@H]2C[C@H]2NC2CCNCC2)cc1
[reply] high

[ask] Category lookup for the compound Cc1c(Nc2ccc(S(=O)(=O)N3CCN(C)CC3)cc2F)nc2ccc(Nc3cnn(C4CC4)c3)cn2c1=O
[reply] high

[ask] In plain terms, what class is CCc1cc2cc(NS(=O)(=O)c3ccc(C#N)cc3)ccc2n(CC)c1=O ?
[reply] high

[ask] Classify this compound: CC(=O)C1=C(C)N(c2cccc(C(F)(F)F)c2)C(=O)N[C@H]1c1ccc(C#N)nc1
[reply] medium

[ask] State the band of CC(C)N(CCCNC(=O)Nc1ccc(C(C)(C)C)cc1)C[C@H]1O[C@@H](n2cc(Br)c3c(N)ncnc32)[C@H](O)[C@@H]1O
[reply] low

[ask] Which class holds COc1cc(Nc2nc(C)cc(-c3cnn4nc(OC)ccc34)n2)cc(C(F)(F)F)c1 ?
[reply] high

[ask] Quick check: band for O=C(O)[C@@H]1[C@@H](Cn2nnc3ccccc3c2=O)CC[C@H]1C(=O)c1ccc(OCCC2CCOCC2)cc1
[reply] medium

[ask] Classify this compound: C[C@@H]1CN(c2cc(-c3nn(C)c4ccc(OC5(C)CC5)cc34)ncn2)C[C@H](C)O1
[reply] low

[ask] Which band does O=C(N1CCS(=O)(=O)CC1)N1C[C@H](c2ccc(OC(F)(F)F)cc2)C[C@H](c2nc(C3CC3)no2)C1 fall in?
[reply] medium

[ask] Lab note: sort CN([C@@H]1CCc2c(CC(=O)O)c3ccccc3n2C1)S(=O)(=O)c1ccc(F)cc1 into the matching viability at 10 µM band.
[reply] low

[ask] Form: Item = CC(=O)c1c(NS(C)(=O)=O)c2cc(-c3ccc(Cl)cc3)c(-c3ccc(Cl)cc3Cl)nc2n(C)c1=O ; Class = ?
[reply] low

[ask] Consider Cn1cc(CCn2cnc(-c3cnn(C)c3)c2-c2ccc(C#N)cc2)cn1 . To which viability at 10 µM class does it belong?
[reply] high

[ask] Which category does the recorded viability at 10 µM put CCN(CCO)CCCOc1ccc2c(Nc3cc(CC(=O)Nc4cccc(F)c4)[nH]n3)ncnc2c1 in?
[reply] low

[ask] Hello team, could you let me know which band the following compound falls into: CN1CCN(Cc2cc(NC(=O)c3ccc4c(c3)CN(c3ccccc3)CC4)cc(C(F)(F)F)c2)CC1
[reply] high

[ask] Please classify: C[C@H]1CC(=O)Nc2cc(C(=O)NCCC3CC3)ccc2N1C(=O)N1CC2CC2C1 (stereo not given in full)
[reply] high

[ask] Input CNC(=O)c1ccc(Nc2ncc(C(F)(F)F)c(NCc3nccnc3N(C)S(C)(=O)=O)n2)cc1 ; output its category
[reply] low
